# tgt: T1, orthogonal hCD122 receptor (hoRb), hCD122 with H133D and Y134F (human, UniProt P14784 27-550)
# T1 sequence: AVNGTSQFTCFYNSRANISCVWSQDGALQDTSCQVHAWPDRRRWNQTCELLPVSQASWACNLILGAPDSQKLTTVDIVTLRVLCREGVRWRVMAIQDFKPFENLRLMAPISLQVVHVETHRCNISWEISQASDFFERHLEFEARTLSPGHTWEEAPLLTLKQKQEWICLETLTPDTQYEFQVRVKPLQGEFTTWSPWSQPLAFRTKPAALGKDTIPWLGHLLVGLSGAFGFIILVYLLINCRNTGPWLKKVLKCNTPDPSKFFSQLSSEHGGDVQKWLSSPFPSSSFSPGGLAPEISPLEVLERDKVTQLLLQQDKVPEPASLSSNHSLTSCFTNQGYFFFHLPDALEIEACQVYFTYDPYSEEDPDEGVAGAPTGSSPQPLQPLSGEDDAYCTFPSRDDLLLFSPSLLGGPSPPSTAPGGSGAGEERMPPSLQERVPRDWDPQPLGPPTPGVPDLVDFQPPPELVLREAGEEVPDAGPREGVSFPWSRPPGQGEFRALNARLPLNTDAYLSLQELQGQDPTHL
# assay.procedure: cell-based or functional assay
measurement.label: NKL Ortho Proliferation Signal 1:10
One number for each entry.

Recorded results for 3 binders are shown here.
binder	value.reported
SNVLKA (ligand) APTSSSTKKTQLQLSNLLVLLKAILNGINNYKNPKLTRMLTFKFYMPKKATELKHLQCLEEELKPLEEVLNLAQSKNFHLRPRDLISNINVIVLELKGSETTFMCEYADETATIVEFLNRWITFCQSIISTLT	39700
Q13W SQVLKA (ligand) APTSSSTKKTQLWLSQLLVLLKAILNGINNYKNPKLTRMLTFKFYMPKKATELKHLQCLEEELKPLEEVLNLAQSKNFHLRPRDLISNINVIVLELKGSETTFMCEYADETATIVEFLNRWITFCQSIISTLT	12900
Q126I, SQVLKA (ligand) APTSSSTKKTQLQLSQLLVLLKAILNGINNYKNPKLTRMLTFKFYMPKKATELKHLQCLEEELKPLEEVLNLAQSKNFHLRPRDLISNINVIVLELKGSETTFMCEYADETATIVEFLNRWITFCISIISTLT	35600

Now, please, on to the next binder.
## Input What value of NKL Ortho Proliferation Signal 1:10 has been reported for the following binder? I86V, SQVLKA (ligand) APTSSSTKKTQLQLSQLLVLLKAILNGINNYKNPKLTRMLTFKFYMPKKATELKHLQCLEEELKPLEEVLNLAQSKNFHLRPRDLVSNINVIVLELKGSETTFMCEYADETATIVEFLNRWITFCQSIISTLT
## Output 38000
